# viability at 28.5 h, 10 µM per entry
Assay: in vitro
Settings: human, hela cells, % viability
Could you give me the number in %? Just the number is fine.

Known viability at 28.5 h, 10 µM results, listed for orientation:
Cc1ncccc1COC(=O)N1CCCC(F)C1 (stereo not shown) = 118
O=c1[nH]c2ncc(-c3ccncc3)nc2n1CC1CC1 = 90
O=S(=O)(Nc1cccc(O)c1)c1ccc(OC(F)(F)F)cc1 = 108
CCCN1CCCC(NS(=O)(=O)c2cc(-n3cccn3)ccc2OC)C1 (stereo not shown) = 91.8
Cc1nc(-c2cccc(OC(F)F)c2)n(C2CCN(C)CC2)n1 = 97.1
CN(C)c1ncccc1CNC(=O)c1ccccn1 = 81.5

// field: viability at 28.5 h, 10 µM; key: NNC(=O)c1cc(-c2ccc(-c3ccccc3)cc2)nc2ccc(Br)cc12 ; value = 104

// field: viability at 28.5 h, 10 µM; key: CN1CCN(C(=O)CCn2c(C(F)F)cc3cccnc32)CC1 ; value = 101

// field: viability at 28.5 h, 10 µM; key: CCCc1[nH]nc(O)c1CCc1ccccc1 ; value = 108

// field: viability at 28.5 h, 10 µM; key: COC(=O)c1ccc(NC(=O)CNc2ccccc2)cc1 ; value = 110

###

# viability at 28.5 h, 10 µM per entry
Assay: in vitro
Settings: human, hela cells, % viability
Dear colleague, please send the value followed by its unit.

// field: viability at 28.5 h, 10 µM; key: O=S1(=O)CCCN1c1ccc2[nH]ncc2c1 ; value = 102%

// field: viability at 28.5 h, 10 µM; key: COC(=O)Nc1ccc(S(=O)(=O)N2CCCC(C(=O)O)C2)cc1 (centres unmarked) ; value = 98.5%

// field: viability at 28.5 h, 10 µM; key: COc1ccc(C(=O)Nc2cc3ccccc3c(N3CCNCC3)n2)cc1 [CBK036344T] ; value = 91.2%

// field: viability at 28.5 h, 10 µM; key: N=C(N)SCc1ccc(CSC(=N)N)cc1 [CBK278309C] ; value = 84.5%

// field: viability at 28.5 h, 10 µM; key: O=C(CSc1ncccn1)Nc1sc2c(c1C(=O)Nc1ccccc1)CCCC2 ; value = 93%

// field: viability at 28.5 h, 10 µM; key: c1ccc(-c2c(-c3ccccc3)n(Cc3ccco3)c3ncn4nc(-c5cccnc5)nc4c23)cc1 ; value = 100%

// field: viability at 28.5 h, 10 µM; key: c1ccc(OCCOc2ccc(N3CCNCC3)nn2)cc1 [CBK022577F] ; value = 109%

// field: viability at 28.5 h, 10 µM; key: COc1ccc2[nH]c(/C(C#N)=C\c3ccc(-c4cc(C(=O)O)ccc4Cl)o3)nc2c1 ; value = 90.4%

###

# viability at 28.5 h, 10 µM per entry
Assay: in vitro
Conditions: human, hela cells, % viability
Could you give me the number in %? Just the number is fine.

Known viability at 28.5 h, 10 µM results, listed for orientation:
Cc1cc(=O)n(CC(=O)NC(C)c2ccccn2)c2ccccc12 (centres unmarked) = 96.3
Clc1ccc(-c2csc(NCc3ccco3)n2)cc1 = 109
COc1cc2ncc(C(=O)NCc3cccs3)c(O)c2cc1OC = 91.9
O=C(O)c1ccc(NS(=O)(=O)c2ccc3c(c2)OCCO3)cc1 = 108

Now look at this entry.
// field: viability at 28.5 h, 10 µM; key: Nc1nc(-c2ccccc2I)n[nH]1 ; value = 93.4
